Target: T1, Myo5, Q04439
T1 sequence (Q04439 1072-1160, looked up): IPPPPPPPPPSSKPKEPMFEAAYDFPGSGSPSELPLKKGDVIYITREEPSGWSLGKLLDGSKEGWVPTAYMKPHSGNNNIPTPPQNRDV
Assay: SPOT array
Details: median of control spots 471
# maps each entry to its SPOT intensity
// return a plain number; no unit text

NILKRRPLKLEAPSK | 0

Query :: Return SPOT intensity (reported value) for this binder: `KMSRSPPRPPSLKII`
Result :: 64

Query :: Return SPOT intensity (reported value) for this binder: `SRSKPLPLTPNSKYN`
Result :: 0

Query :: Return SPOT intensity (reported value) for this binder: `PVLPPPRSPNRPTLS`
Result :: 6

Query :: Return SPOT intensity (reported value) for this binder: `IHTRRPSSTSQYLIR`
Result :: 1
